biological target: δ receptors (Mus musculus, UniProt P32300); details: MVD pA2 (range), δ antagonism against deltorphin C; mean (range)
Sequence (P32300 whole entry): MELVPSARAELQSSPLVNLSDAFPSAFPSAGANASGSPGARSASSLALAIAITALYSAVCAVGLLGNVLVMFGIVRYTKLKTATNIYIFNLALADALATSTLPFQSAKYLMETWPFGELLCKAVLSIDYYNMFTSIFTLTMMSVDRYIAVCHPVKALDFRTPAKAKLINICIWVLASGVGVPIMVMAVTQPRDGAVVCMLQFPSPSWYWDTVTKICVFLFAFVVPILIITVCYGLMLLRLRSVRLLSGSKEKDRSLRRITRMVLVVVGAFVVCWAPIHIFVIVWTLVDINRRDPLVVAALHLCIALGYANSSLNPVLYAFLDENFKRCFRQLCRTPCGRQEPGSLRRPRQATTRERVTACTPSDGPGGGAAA
Non-standard residues stand in square brackets, D forms with d. Residues, ends and D or L forms follow the SMILES beside them. *: point of attachment. Dmt = Cc1cc(O)cc(C)c1C[C@H](N)C(=O)O; Tic = O=C(O)[C@@H]1Cc2ccccc2CN1; NHtBu = CC(C)(C)N*
Hi there, I'd appreciate the recorded Kb for every entry that follows.
Record the value in nM, omitting the unit from your answer.

Query block: Provide the documented Kb with δ receptors (Mus musculus, UniProt P32300) as the system for Cc1cc(O)cc(C)c1C[C@@H](C(=O)N1Cc2ccccc2C[C@H]1C(=O)O)N1CCCCC1 [Compound 3, [des-NH2-α-piperidine-1-yl]-Dmt-Tic-OH]
Result block: 49

Query block: Follow-up entry: Cc1cc(O)cc(C)c1C[C@H](N)C(=O)N1Cc2ccccc2C[C@H]1C(=O)NC(C)(C)C [Compound 9, H-Dmt-Tic-NH-tBu] (H-[Dmt]-[Tic]-NHtBu)
Result block: 5.75

Query block: // next record CNC(=O)[C@@H]1Cc2ccccc2CN1C(=O)[C@H](Cc1c(C)cc(O)cc1C)N(C)C [Compound 13, N,N(Me)2-Dmt-Tic-NHMe]
Result block: 0.407

Query block: Try the compound Cc1cc(O)cc(C)c1C[C@@H](C(=O)N1Cc2ccccc2C[C@H]1C(=O)NC(C)(C)C)N(C)C [Compound 14, N,N(Me)2-Dmt-Tic-NH-tBu]
Result block: 14.1

Query block: Can you check Cc1cc(O)cc(C)c1C[C@@H](C(=O)N1Cc2ccccc2C[C@@H]1C(=O)NC12CC3CC(CC(C3)C1)C2)N(C)C [Compound 16, N,N(Me)2-Dmt-D-Tic-NH-1-adamantane] next?
Result block: 123

Query block: Follow-up item: Cc1cc(O)cc(C)c1C[C@@H](C(=O)N1Cc2ccccc2C[C@H]1C(=O)NC12CC3CC(CC(C3)C1)C2)N(C)C [Compound 15, N,N(Me)2-Dmt-Tic-NH-1-adamantane]
Result block: 0.871

* * *

target: μ receptors (Rattus norvegicus, UniProt P33535); construct: assayed with a rat brain synaptosomal preparation (P2); from tissue; host or cells: rat brain P2 synaptosomes; experiment: Radio-receptor competition assay, rat brain synaptosomes, [3H]DAGO (Example 74); type: binding; settings: rat brain P2 synaptosomes, [3H]DAGO; read-out: Receptor affinity (nM) Kiμ
Sequence (P33535 whole entry): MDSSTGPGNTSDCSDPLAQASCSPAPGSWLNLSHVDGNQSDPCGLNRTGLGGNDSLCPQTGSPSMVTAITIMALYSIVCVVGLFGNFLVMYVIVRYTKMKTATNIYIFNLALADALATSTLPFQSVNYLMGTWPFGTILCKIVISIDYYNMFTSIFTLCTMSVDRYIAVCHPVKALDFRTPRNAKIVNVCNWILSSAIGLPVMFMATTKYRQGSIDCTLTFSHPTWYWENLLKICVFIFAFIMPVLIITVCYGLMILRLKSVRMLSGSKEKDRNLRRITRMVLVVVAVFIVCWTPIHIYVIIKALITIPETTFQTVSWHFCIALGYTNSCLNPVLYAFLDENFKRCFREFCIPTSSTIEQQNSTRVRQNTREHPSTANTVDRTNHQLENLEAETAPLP
Non-standard residues stand in square brackets, D forms with d. Residues, ends and D or L forms follow the SMILES beside them. *: point of attachment. Dmt = Cc1cc(O)cc(C)c1C[C@H](N)C(=O)O; Tic = O=C(O)[C@@H]1Cc2ccccc2CN1; NHPh = c1ccc(N*)cc1
We label by threshold. Values of Ki strictly beneath 200 nM are true (1). Values of 200 nM and up are false (0).

Query block: # TODO verify Ki < 200 nM strictly for this molecule: Cc1cc(O)cc(C)c1C[C@H](N)C(=O)N1Cc2ccccc2C[C@H]1CO [H-Dmt-Tic-ol, reference compound]
Result block: true (1)

Query block: Okay, and Cc1cc(O)cc(C)c1C[C@H](N)C(=O)N1Cc2ccccc2C[C@H]1C(=O)O [H-Dmt-Tic-OH, reference compound] (H-[Dmt]-[Tic]-OH) ?
Result block: false (0)

Query block: How about this molecule: Cc1cc(O)cc(C)c1C[C@H](N)C(=O)N1Cc2ccccc2C[C@H]1C(=O)N[C@@H](C)C(N)=O [H-Dmt-Tic-Ala-NH2, reference compound] (H-[Dmt]-[Tic]-Ala-NH2)
Result block: true (1)

Query block: One more molecule: Cc1cc(O)cc(C)c1CC(N)C(=O)N1Cc2ccccc2CC1c1nc2ccccc2[nH]1 (centres unmarked)
Result block: true (1)

Query block: What about Cc1cc(O)cc(C)c1C[C@H](N)C(=O)N1Cc2ccccc2C[C@H]1C(=O)NCC(=O)Nc1ccccc1 [Compound 27, H-Dmt-Tic-Gly-NH-Ph] (H-[Dmt]-[Tic]-Gly-NHPh) ?
Result block: true (1)

Value source: patent US6916905B2
